- assayOverview: qHTS profiling of the MIPE4 collection as inhibitors of Plasmodium falciparum (3D7) proliferation (AID 743344);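 further: scaled between DMSO vehicle wells and 0.29 µM artemisinin as full inhibition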
- protocolConditions: P. falciparum 3D7 in erythrocytes, SYBR Green DNA fluorescence, 72 h; at 28.5 µM unless noted
experimentalReadout: parasite growth, % of DMSO control (%)
Numbers only, in %.

Example results:
compound	measuredValue
O=Nc1c(-c2c(O)[nH]c3cc(Br)ccc23)[nH]c2ccccc12	2.9
CC(C)(S)[C@@H](N)C(=O)O	106
COC(=O)C1=C(C)NC(C)=C(C(=O)OCCCN2CCC(c3ccccc3)(c3ccccc3)CC2)C1c1cccc([N+](=O)[O-])c1 (stereo not given)	114

Batch request: parasite growth, % of DMSO control for each of the following compounds.
1. Nc1ccc(S(N)(=O)=O)cc1
2. O=C1c2ccccc2-c2n[nH]c3cccc1c23
3. Cc1cccc(C)c1OCC(=O)N[C@@H](Cc1ccccc1)[C@@H](O)C[C@H](Cc1ccccc1)NC(=O)[C@H](C(C)C)N1CCCNC1=O

105
62.9
6.88

---

- assayOverview: Quantitative High-Throughput drug screen in 47 multiple myeloma cell lines against the NCATS MIPE library collection: OCIMY5_PLB cell viability assay (AID 1918988); further: nearly all actives have a fitted effect of over 65% in size
- protocolConditions: OCI-MY5 myeloma viability, ATP luminescence, 48 h; series mostly up to 45.8 µM
- Source text: PI: Beverly A. Mock Ph.D. Laboratory of Cancer Biology and Genetics, Center for Cancer Research, National Cancer Institute, National Institute of Health, Bethesda, Maryland […] 5; Detector; 425V; Luminescence; Viewlux PerkinElmer. […] 1. […] Briefly, the corresponding myeloma cell lines were screened in 1,536-well plates with 500 cells, 5-uL per well for inhibition of cell viability (assessed by measuring ATP levels with CellTiterGlo). […]
Records with an inconclusive call do not appear. Active and inactive are the calls of the source. The call rests on the fitted dose curve; in most records, active means well fitted cell-killing curve with a large enough effect; inconclusive means small, poorly fitted or top-dose-only effect, or effect the other way; inactive means no such curve, though single readings can be large or run the other way.
Your answer must be one of the following: T = active, F = inactive

Before answering, review these 10 worked examples.
compound	classLabel
CN(C)CCCC1(c2ccc(F)cc2)OCc2cc(C#N)ccc21 (centres undefined)	T
O=C(NC(Cc1cc(=O)[nH]c2ccccc12)C(=O)O)c1ccc(Cl)cc1 (centres undefined)	T
COc1ccc2cc([C@H](C)C(=O)O)ccc2c1	T
CN1C(C(=O)Nc2ccccn2)=C(O)c2sccc2S1(=O)=O	T
Nc1cccc2c1CN(C1CCC(=O)NC1=O)C2=O (centres undefined)	F
CCCCCCCCCCCCCCCCCCCCCCO	F
Cc1cccc(C)c1OCC(=O)N[C@@H](Cc1ccccc1)[C@@H](O)C[C@H](Cc1ccccc1)NC(=O)[C@H](C(C)C)N1CCCNC1=O	F
O=Nc1c(-c2c(O)[nH]c3cc(Br)ccc23)[nH]c2ccccc12	T
CCN(CC)C(=S)SSC(=S)N(CC)CC	T
C=CCc1cc(OC)c(O)c(C(=O)NCCO)c1	F

For O=C1c2c(O)cc(O)cc2OC(c2ccc(O)c(O)c2)C1O (centres undefined) , which call appears in the assay record?
F

For `Cc1ccc(Nc2nccc(N(C)c3ccc4c(C)n(C)nc4c3)n2)cc1S(N)(=O)=O` , which call appears in the assay record?
T

For `c1ccc2[nH]c(-c3cscn3)nc2c1` , which call appears in the assay record?
F

For `COc1cc(C(C)=O)ccc1OCCCN1CCC(c2noc3cc(F)ccc23)CC1` , which call appears in the assay record?
T

For `Oc1ccc(-c2nc(-c3ccc(F)cc3)c(-c3ccncc3)[nH]2)cc1` , which call appears in the assay record?
T

For `CCN(CC)CCOc1ccc(Cc2ccccc2)cc1` , which call appears in the assay record?
T

For `CC1(C)CCC(C)(C)c2cc(NC(=O)c3ccc(C(=O)O)cc3)ccc21` , which call appears in the assay record?
T

For Clc1ccc(C(Cn2ccnc2)OCc2ccsc2Cl)c(Cl)c1 (centres undefined) , which call appears in the assay record?
T

---

- assayOverview: qHTS of pediatric cancer cell lines to identify multiple opportunities for drug repurposing: Confirmatory screen for TC32 cells (AID 1347118);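 further: cells exposed to compound for 48 h before the read; nearly all actives have a fitted effect of over 65% in size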
- protocolConditions: TC32 Ewing sarcoma cells viability qHTS; series mostly up to 45.9 µM
Records with an inconclusive call do not appear. Activity calls are given as the source filed them. The call rests on the fitted dose curve; in most records, active means well fitted cell-killing curve with a large enough effect; inconclusive means small, poorly fitted or top-dose-only effect; inactive means no such curve, though single readings can be large or run the other way.
Your answer must be one of the following: yes (1) for active, no (0) for inactive

Before answering, review these 3 worked examples.
molecule	classLabel
CCc1nc(N)nc(N)c1-c1ccc(Cl)cc1	yes (1)
O=C(CCc1ccc(O)cc1)c1c(O)cc(O)cc1O	no (0)
CCCCc1ccc2nc(NC(=O)OC)[nH]c2c1	yes (1)

For `CCN(CC)CCOc1ccc(Nc2ncc3cc(-c4c(Cl)cccc4Cl)c(=O)n(C)c3n2)cc1` , which call appears in the assay record?
yes (1)

For `Cc1cc(C2CCCCC2)n(O)c(=O)c1` , which call appears in the assay record?
yes (1)

For Clc1ccc(C(Cn2ccnc2)OCc2ccc(Sc3ccccc3)cc2)c(Cl)c1 (stereo unspecified) , which call appears in the assay record?
yes (1)

---

- assayOverview: Quantitative High-Throughput drug screen in 47 multiple myeloma cell lines against the NCATS MIPE library collection: KMM1_JCRB cell viability assay (AID 1918960); further: nearly all actives have a fitted effect of over 30% in size; further: potency means the concentration at half of the fitted maximal effect
- protocolConditions: KMM1 myeloma viability, CellTiter-Glo ATP luminescence, 48 h; series mostly up to 45.8 µM
Results filed as inconclusive are left out. Active and inactive are the calls of the source. The call rests on the fitted dose curve; in most records, active means well fitted cell-killing curve with a large enough effect; inconclusive means small, poorly fitted or top-dose-only effect, or effect the other way; inactive means no such curve, though single readings can be large or run the other way.
experimentalReadout: Potency

Example results:
Cc1nc(Nc2ncc(C(=O)Nc3c(C)cccc3Cl)s2)cc(N2CCN(CCO)CC2)n1 1050 nM (active)
NNc1nncc2ccccc12 inactive
CC1(C)NC(=O)N(c2ccc([N+](=O)[O-])c(C(F)(F)F)c2)C1=O inactive
COc1ccc2cc([C@H](C)C(=O)O)ccc2c1 inactive
Cc1cc(=O)oc2cc(O)ccc12 inactive
O=C(O)c1cc(=O)c2c(OCC(O)COc3cccc4oc(C(=O)O)cc(=O)c34)cccc2o1 inactive

Batch request: Potency for each of the following compounds.
1. COc1cc2c(N3CCN(C(=O)Nc4ccc(OC(C)C)cc4)CC3)ncnc2cc1OCCCN1CCCCC1
2. CC[C@]1(O)C[C@H]2CN(CCc3c([nH]c4ccccc34)[C@@](C(=O)OC)(c3cc4c(cc3OC)N(C=O)[C@H]3[C@@](O)(C(=O)OC)[C@H](OC(C)=O)[C@]5(CC)C=CCN6CC[C@]43[C@@H]65)C2)C1
3. N=C(N)c1ccc2cc(OC(=O)c3ccc(N=C(N)N)cc3)ccc2c1

["inactive", "46.9 nM (active)", "inactive"]

---

Field: activity, negative = cell killing. Provide a value for each of the compounds that follow.
- assayOverview: Drug repurposing screens with cells derived from glioblastoma tumor samples (AID 1345199); further: on the % scale 0 is the no-effect control and ±100 the full control effect; nearly all actives have a fitted effect of over 40% in size
- protocolConditions: GBM patient neurospheres viability, ATP luminescence, 48 h; at 20 µM (top of the series); tumour line C
Results filed as inconclusive are left out.
One number for each entry, in %.

Batch request: activity, negative = cell killing for each of the following compounds.
1. NNc1nncc2ccccc12
2. Cc1cccc(CN2CCN(C(c3ccccc3)c3ccc(Cl)cc3)CC2)c1 (stereo unspecified)
3. Cc1cc2cc3c(C)cc(=O)oc3c(C)c2o1
4. CN1C(C(=O)Nc2ccccn2)=C(O)c2sccc2S1(=O)=O
5. COc1cc(OC)c(C(=O)CCCN2CCCC2)c(OC)c1
6. CC1Cc2ccccc2N1NC(=O)c1ccc(Cl)c(S(N)(=O)=O)c1 (stereo unspecified)

[-13.5, -7.92, -6.21, 2.25, 0.201, 27.9]

---

- assayOverview: qHTS Screen of the MIPE 4.0 Collection Against Ewings Sarcoma (RDES) (AID 1259252); further: nearly all actives have a fitted effect of over 35% in size
- protocolConditions: RD-ES Ewing sarcoma viability, CellTiter-Glo, 48 h; series mostly up to 45.8 µM
- Procedure: There is a large unmet medical need for treatments for Ewing sarcoma, a pediatric sarcoma. […] Using the NCATS developed oncology compound library called the Mechanism of Interrogation Plate (MIPE), four Ewing sarcoma cell lines were evaluated (TC32, TC71, RDES, EW8). Compounds, in a 12-point titration series, were incubated with cells for 48 hours and the read out was cell viability (CellTiter-Glo from Promega). […]
Results filed as inconclusive are left out. Calls of active or inactive are those of the source. The call rests on the fitted dose curve; in most records, active means well fitted inhibition curve with a large enough effect; inconclusive means small, poorly fitted or top-dose-only effect; inactive means no such curve, though single readings can be large or run the other way.
Your answer must be one of the following: active, inactive

Before answering, review these 5 worked examples.
molecule	classLabel
O=C(CS(=O)Cc1ccco1)NCC=CCOc1cc(CN2CCCCC2)ccn1 (stereo not drawn)	inactive
C[Se]CCC(N)C(=O)O (stereo not drawn)	inactive
Cn1c(NCCN(CCO)CCCc2ccc([N+](=O)[O-])cc2)cc(=O)n(C)c1=O	active
CN(C)C(=O)COC(=O)Cc1ccc(OC(=O)c2ccc(N=C(N)N)cc2)cc1	active
CC1=C(C)C(=O)C(C(CCCCCC(=O)O)c2ccccc2)=C(C)C1=O (stereo not drawn)	inactive

For `NS(=O)(=O)c1cc(C(=O)O)c(NCc2ccco2)cc1Cl` , which call appears in the assay record?
inactive

For CCCCC(CC)COC(=O)C(C#N)=C(c1ccccc1)c1ccccc1 (stereo not drawn) , which call appears in the assay record?
inactive

For COC(=O)C1=C(C)NC(C)=C(C(=O)OC(C)C)C1c1cccc2nonc12 (stereo not drawn) , which call appears in the assay record?
active
